B1: POU domain, class 3, transcription factor 1, residues 247 to 324; numbered along this chain, Q03052 (parent)
chain: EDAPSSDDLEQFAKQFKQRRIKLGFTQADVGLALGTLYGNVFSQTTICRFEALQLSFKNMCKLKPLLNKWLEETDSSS

- Variants of: B1
- method: abundance fitness (aPCA) (normalised: wild type 0, dead -1); higher = more abundant; growth selection in yeast, the domain comes from the species named
- condition: Homo sapiens
Each entry below lists one item and its recorded abundance fitness value.

Recorded results for 2 variants are shown here.
EDAPSSDDLEQFAKQFKQRRIKLGFTQADVGLALGTLYGNVFSQTTICRFEALQLSFKIMCKLKPLLNKWLEETDSSS [N59I] | -0.197
EDAPSSDDLEQFAKQFKQRRIKLGFTQADVGLALGTLYGNVFSQTTICRFEALQLSFKNMCKLKPMLNKWLEETDSSS [L66M] | 0.162

The reported value for EDAPSSDDLEQFAKQFKQRRIKLGFTQADVGLALGTLYGNVFDQTTICRFEALQLSFKNMCKLKPLLNKWLEETDSSS [S43D] in terms of abundance fitness is 0.17

Entry EDAPSSDDLEQFAKQFKQRRIKLGFTQADVGLALGTLYGNVFSQTTICRFEALQLSFKNMCKLKPLSNKWLEETDSSS [L67S] , abundance fitness reported as -0.829

Recorded result, EDAPSSDDLEQFAKQFKQRRIKLGRTQADVGLALGTLYGNVFSQTTICRFEALQLSFKNMCKLKPLLNKWLEETDSSS [F25R] , abundance fitness: -0.342

Sure, the documented abundance fitness for EDAPSSDDLEQFAKQFKQRRIKLGFTQADVGLALGTLYGNVFSQTTICRFEALQLSFKNLCKLKPLLNKWLEETDSSS [M60L] is -0.256

Entry EDAPSSDDLEQFAKQFKQRRIKLGFTQADVGLALGTLYGNVFSQTTICRFEALQLSFKNMCKCKPLLNKWLEETDSSS [L63C] — recorded abundance fitness = -0.736

Summary for this variant, EDAPSSDDLEQFAKQFKQRRIKLGFTQADVGLALGTLYGNVFSQTTICRFEALQLSFQNMCKLKPLLNKWLEETDSSS [K58Q] : abundance fitness is -0.012

abundance fitness measured on EDAPSSDDLEQFAKQFKQRRIKLGFTQADVGLALGTLYGNVFSQTTICRFEALQLSFKNMCKLKPLLNKWLEETTSSS [D75T] = -0.274

Lookup result for EDAPSSDDLEQFAKQFKQRRQKLGFTQADVGLALGTLYGNVFSQTTICRFEALQLSFKNMCKLKPLLNKWLEETDSSS [I21Q] ; measured abundance fitness: -0.178

Recorded abundance fitness (variant EDAPSSDDLEQFAKQFKQRRIKLGFTQADVGLALGTLYGNVFSQTTICRFEALQLSFKNMCKLKPQLNKWLEETDSSS [L66Q] ): -0.4

# abundance fitness of EDAPSSDDLEQFAKQFKQRRIKLGFTQADVGLALGTLYGNVFSQTTICRFEALQLSFKNWCKLKPLLNKWLEETDSSS [M60W] = -0.826

Item: EDAPSSDDLEQFAKQFKQRRIKLGFTQADVGLALGPLYGNVFSQTTICRFEALQLSFKNMCKLKPLLNKWLEETDSSS [T36P] | abundance fitness: -0.262

Lab note: measured abundance fitness of EDAPSSDDLEQFAKQFKQRRIKLGFTQADVGLALGTLYGNVFSQTTICRFEALQLSFKNMCKLKPLLNKWLEETDWSS [S76W] was -0.495

Looking up EDAPSSDDLEQFAKQFKQRRIKLGFTQADVGLALGTLYGDVFSQTTICRFEALQLSFKNMCKLKPLLNKWLEETDSSS [N40D] , I found its abundance fitness recorded as 0.062
